target: bovine trypsin (bovine, UniProt P00760 24-246); assay: trypsin (50 nM) BApNA hydrolysis, OD405; peptide at 0.98 µM
Sequence (P00760 24-246): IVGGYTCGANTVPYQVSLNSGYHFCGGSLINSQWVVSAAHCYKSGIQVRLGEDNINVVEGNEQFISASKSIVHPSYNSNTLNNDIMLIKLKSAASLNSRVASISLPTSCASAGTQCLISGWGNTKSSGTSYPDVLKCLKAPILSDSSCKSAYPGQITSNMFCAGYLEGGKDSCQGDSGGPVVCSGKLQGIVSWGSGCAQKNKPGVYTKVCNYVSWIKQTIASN
Bridge positions count the residues as written; N and C are the ends. Ends that are not written are not given here.
observed.property: Residual trypsin activity (%)

Problem: Give the measured Residual trypsin activity (%) of CARATKSIPPICF (disulfide 1-12 (inferred), synthetic) [BT67] .
Solution: 0.1%

Problem: Give the measured Residual trypsin activity (%) of CGRATKSIPPICF (disulfide 1-12 (inferred), synthetic) [BT9] .
Solution: -0.4%

Problem: Give the measured Residual trypsin activity (%) of CGTATKSIPPICF (disulfide 1-12 (inferred), synthetic) [BT25] .
Solution: 49.7%

Problem: Give the measured Residual trypsin activity (%) of CPRATKSIPPICF (disulfide 1-12 (inferred), synthetic) [BT66] .
Solution: 0.1%

Problem: Give the measured Residual trypsin activity (%) of CGRAAKSIPPICF (disulfide 1-12 (inferred), synthetic) [BT26] .
Solution: 94.5%
